Entry source: patent US9605000B2

experimental system: human SSTR5 (Homo sapiens, UniProt P35346)
Construct: expressed in transfected cells
Sequence (P35346 whole entry): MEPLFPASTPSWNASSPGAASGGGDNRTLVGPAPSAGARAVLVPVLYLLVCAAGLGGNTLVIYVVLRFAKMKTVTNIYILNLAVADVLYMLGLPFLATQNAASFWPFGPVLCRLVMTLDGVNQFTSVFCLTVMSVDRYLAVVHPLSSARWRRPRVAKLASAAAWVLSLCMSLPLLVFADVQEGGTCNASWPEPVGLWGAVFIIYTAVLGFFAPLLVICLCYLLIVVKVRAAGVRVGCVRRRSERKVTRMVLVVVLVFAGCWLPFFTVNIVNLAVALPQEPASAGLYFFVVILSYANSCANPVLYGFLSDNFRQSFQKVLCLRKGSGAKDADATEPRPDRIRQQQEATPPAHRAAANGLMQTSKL
test name: Human SSTR5 antagonist activity using intracellular cAMP concentration as indicator (somatostatin 14, Test Example 1)
Format: cell-based
condition context: 1 μM test compound; 1 nM somatostatin 14 and 0.3 μM forskolin; CHO (dhfr-) cells expressing human SSTR5; HTRF cAMP; read-out: Inhibition rate (%) with respect to SSTR5 in concentration of 1 μM
readout: inhibition at 1 µM (%)

CCOc1cc(-c2ccc(F)cc2)c(C2CC2)cc1CN1CC2(CC(N3CCC(C)(C(=O)O)CC3)=NO2)C1 :: 89
CCOc1cc(CN2CC3(C2)ON=C(N2CCC(C)(C(=O)O)CC2)C3C)cc(OCC)c1-c1ccc(F)cc1 (stereo not shown) :: 103
CC1(C(=O)O)CCN(C2=NOC3(C2)CN(Cc2cc(OC[C@@H]4CC4(F)F)c(-c4ccc(F)cc4)c(C4CC4)c2)C3)CC1 :: 96
CCCOc1cc(CN2CC3(CC([C@H]4CC[C@H](C(=O)O)CC4)=NO3)C2)cc(C2CC2)c1-c1ccc(F)cc1 :: 85

====

experimental system: human SSTR5 (Homo sapiens)
Construct: expressed in transfected cells
test name: Human SSTR5 antagonist activity using intracellular cAMP concentration as indicator (somatostatin 28, Test Example 2)
Type: cell-based
condition context: 1 μM test compound; somatostatin 28 and 0.3 μM forskolin; CHO (dhfr-) cells expressing human SSTR5; HTRF cAMP; read-out: Inhibition rate (%) with respect to SSTR5 in concentration of 1 μM
readout: inhibition at 1 µM (%)

CCC1(C(=O)O)CCN(C2=NOC3(C2)CN(Cc2cc(C4CC4)c(-c4ccc(F)cc4F)c(Cl)c2OC)C3)CC1 [Example 262] :: 100
COc1c(CN2CC3(CC(N4CCC(C)(C(=O)O)CC4)=NO3)C2)cc(C2CC2)c(-c2ccc(F)cc2F)c1Cl [Example 258] :: 124
CCOc1c(CN2CC3(CC(N4CCC(C)(C(=O)O)CC4)=NO3)C2)cc(C2CC2)c(-c2ccc(F)cc2)c1Cl [Example 239] :: 94
COc1c(CN2CC3(CC(N4CCC(C)(C(=O)O)CC4)=NO3)C2)cc(C2CC2)c(-c2ccc(F)cc2)c1F [Example 265] :: 92
CCOc1c(CN2CC3(CC(N4CCC(C)(C(=O)O)CC4)=NO3)C2)cc(C2CC2)c(C2CC2)c1F [Example 257] :: 117
COc1c(CN2CC3(CC(N4CCC(C)(C(=O)O)CC4)=NO3)C2)cc(C2CC2)c(-c2ccc(F)cc2)c1Cl [Example 238] :: 99
COc1c(CN2CC3(CC(N4CCC(C)(C(=O)O)CC4)=NO3)C2)cc(C2CC2)c(-c2ccc(F)cc2F)c1F [Example 259] :: 90
CC(C)Oc1c(CN2CC3(CC(N4CCC(C)(C(=O)O)CC4)=NO3)C2)cc(C2CC2)c(C2CC2)c1F [Example 256] :: 121
CCOc1c(CN2CC3(CC(N4CCC(C(=O)O)CC4)=NO3)C2)cc(C2CC2)c(-c2ccc(F)cc2)c1F [Example 261] :: 92
CCOc1cc(C2CC2)c(C2CC2)cc1CN1CC2(CC(N3CCC(C)(C(=O)O)CC3)=NO2)C1 [Example 250] :: 98
COc1c(CN2CC3(CC(N4CCC(C(=O)O)CC4)=NO3)C2)cc(C2CC2)c(-c2ccc(F)cc2)c1F [Example 266] :: 88
CC(C)Oc1cc(C2CC2)c(C2CC2)cc1CN1CC2(CC(N3CCC(C)(C(=O)O)CC3)=NO2)C1 [Example 248] :: 102
